- Tested on: Mycobacterium tuberculosis
- EXPERIMENT_SUMMARY: Binding affinity to recombinant Mycobacterium tuberculosis EthR2 assessed as change in melting temperature at 20 uM by SYPRO Orange dye based fluorescence thermal shift assay
So basically, if ΔTm comes in under 0.1 °C it's t, and if it's 0.1 °C or more it's f.

See these solved cases before continuing.
>  <MOL_SMILES>
O=C1CC2CCC(C1)N2CCc1ccncc1

>  <ASSAY_TARGET>
Mycobacterium tuberculosis

>  <LABEL_VALUE>
t

$$$$
>  <MOL_SMILES>
O=C1CC2CCC(C1)N2CCc1ccc(F)cc1

>  <ASSAY_TARGET>
Mycobacterium tuberculosis

>  <LABEL_VALUE>
f

$$$$
>  <MOL_SMILES>
O=C1CC2CCC(C1)N2C(=O)Cc1ccc(Cl)cc1

>  <ASSAY_TARGET>
Mycobacterium tuberculosis

>  <LABEL_VALUE>
t

$$$$

API: query returns whether the compound falls strictly under 0.1 °C in ΔTm. Query: O=C1CC2CCC(C1)N2CCc1cccc(C(F)(F)F)c1
t

API: query returns whether the compound falls strictly under 0.1 °C in ΔTm. Query: O=C1CC2CCC(C1)N2CCc1ccc(Cl)cc1Cl
f

###

- System: Mycobacterium tuberculosis
- EXPERIMENT_SUMMARY: Binding affinity to recombinant Mycobacterium tuberculosis EthR2 assessed as change in melting temperature at 20 uM by SYPRO Orange dye based fluorescence thermal shift assay
REPORTED_PROPERTY: ΔTm (°C)
Lab book: enter the figure in °C, no units written.

>  <MOL_SMILES>
O=C1CC2CCC(C1)N2CCc1ccc(C(F)(F)F)cc1

>  <REPORTED_PROPERTY>
ΔTm

>  <VALUE_UNIT>
°C

>  <MEASURED>
1.8

$$$$
>  <MOL_SMILES>
O=C1C2CCC1CN(CCc1ccc(Cl)cc1)C2

>  <REPORTED_PROPERTY>
ΔTm

>  <VALUE_UNIT>
°C

>  <MEASURED>
0.1

$$$$
>  <MOL_SMILES>
O=C1C2CCCC1CN(CCc1ccc(Cl)cc1)C2

>  <REPORTED_PROPERTY>
ΔTm

>  <VALUE_UNIT>
°C

>  <MEASURED>
-0.1

$$$$

Which ΔTm is reported for this molecule? O=C1CC2CCC(C1)N2CCc1ccc(Cl)c(Cl)c1
1

Which ΔTm is reported for this molecule? O=C1CC2CCC(C1)N2CCc1ccccc1C(F)(F)F
0.3

Which ΔTm is reported for this molecule? FC(F)=C1CC2CCC(C1)N2CCc1ccc(Cl)cc1
0.6

Which ΔTm is reported for this molecule? O=C1CC2CCC(C1)N2CCc1ccc(Br)cc1
1

Which ΔTm is reported for this molecule? Cc1ccc(CCN2C3CCC2CC(=O)C3)cc1
0.6

Which ΔTm is reported for this molecule? O=C1CC2CCC(C1)N2CCc1ccc(Cl)cc1
0.6

Which ΔTm is reported for this molecule? O=C1CC2CCC(C1)N2Cc1ccc(Cl)cc1
0

Which ΔTm is reported for this molecule? COC1(OC)CC2CCC(C1)N2CCc1ccc(Cl)cc1
0.2

Which ΔTm is reported for this molecule? Clc1ccc(CCN2C3CCC2CC2(C3)OCCO2)cc1
0.1

Which ΔTm is reported for this molecule? O=C1CC2CCCC(C1)N2CCc1ccc(Cl)cc1
0.6

Which ΔTm is reported for this molecule? O=C1CC2CCC(C1)N2CCc1ccc([N+](=O)[O-])cc1
-0.2

Which ΔTm is reported for this molecule? COc1ccc(CCN2C3CCC2CC(=O)C3)cc1
0.3
